Test: PDX model: body and organ weight, CBC and blood biochemistry
Type: in vivo
Conditions: NSG mice, 5 mg/kg i.v. weekly x4, day 23, reference interval 4.5–5.5
assay-metric: Total protein (g/dL)
Form entry: value (g/dL) — number only.

Exam item: Recorded Total protein for `FC(F)C(F)(F)COCc1ccnc(-c2cc(COCC(F)(F)C(F)F)ccn2)c1.[Cl][Pt][Cl]` , please?
Marked response: 4.6

====

Tested on: MCF-7
Assay: MTT cell viability assay on MCF-7
Assay type: cell-based, human
Conditions: MCF-7, MTT assay, 48 h
assay-metric: IC50

| molecule | result |
| --- | --- |
| FC(F)C(F)(F)COCc1ccnc(-c2cc(COCC(F)(F)C(F)F)ccn2)c1.[Cl][Pt][Cl] | > 80 µM |

Kindly review the next molecule as well.
Exam item: Which measured IC50 value corresponds to N.N.[Cl][Pt][Cl] [CDDP, Cis-diamineplatinum(II) dichloride] ?
Marked response: > 80 µM

Hey, just so you know, these numbers are from paper PMC9031226.
